target: human c-Met (HGFR), full length, on the cell surface (human, UniProt P08581 25-1390); experiment: cell-based or functional assay
Sequence (P08581 25-1390 limits assumed): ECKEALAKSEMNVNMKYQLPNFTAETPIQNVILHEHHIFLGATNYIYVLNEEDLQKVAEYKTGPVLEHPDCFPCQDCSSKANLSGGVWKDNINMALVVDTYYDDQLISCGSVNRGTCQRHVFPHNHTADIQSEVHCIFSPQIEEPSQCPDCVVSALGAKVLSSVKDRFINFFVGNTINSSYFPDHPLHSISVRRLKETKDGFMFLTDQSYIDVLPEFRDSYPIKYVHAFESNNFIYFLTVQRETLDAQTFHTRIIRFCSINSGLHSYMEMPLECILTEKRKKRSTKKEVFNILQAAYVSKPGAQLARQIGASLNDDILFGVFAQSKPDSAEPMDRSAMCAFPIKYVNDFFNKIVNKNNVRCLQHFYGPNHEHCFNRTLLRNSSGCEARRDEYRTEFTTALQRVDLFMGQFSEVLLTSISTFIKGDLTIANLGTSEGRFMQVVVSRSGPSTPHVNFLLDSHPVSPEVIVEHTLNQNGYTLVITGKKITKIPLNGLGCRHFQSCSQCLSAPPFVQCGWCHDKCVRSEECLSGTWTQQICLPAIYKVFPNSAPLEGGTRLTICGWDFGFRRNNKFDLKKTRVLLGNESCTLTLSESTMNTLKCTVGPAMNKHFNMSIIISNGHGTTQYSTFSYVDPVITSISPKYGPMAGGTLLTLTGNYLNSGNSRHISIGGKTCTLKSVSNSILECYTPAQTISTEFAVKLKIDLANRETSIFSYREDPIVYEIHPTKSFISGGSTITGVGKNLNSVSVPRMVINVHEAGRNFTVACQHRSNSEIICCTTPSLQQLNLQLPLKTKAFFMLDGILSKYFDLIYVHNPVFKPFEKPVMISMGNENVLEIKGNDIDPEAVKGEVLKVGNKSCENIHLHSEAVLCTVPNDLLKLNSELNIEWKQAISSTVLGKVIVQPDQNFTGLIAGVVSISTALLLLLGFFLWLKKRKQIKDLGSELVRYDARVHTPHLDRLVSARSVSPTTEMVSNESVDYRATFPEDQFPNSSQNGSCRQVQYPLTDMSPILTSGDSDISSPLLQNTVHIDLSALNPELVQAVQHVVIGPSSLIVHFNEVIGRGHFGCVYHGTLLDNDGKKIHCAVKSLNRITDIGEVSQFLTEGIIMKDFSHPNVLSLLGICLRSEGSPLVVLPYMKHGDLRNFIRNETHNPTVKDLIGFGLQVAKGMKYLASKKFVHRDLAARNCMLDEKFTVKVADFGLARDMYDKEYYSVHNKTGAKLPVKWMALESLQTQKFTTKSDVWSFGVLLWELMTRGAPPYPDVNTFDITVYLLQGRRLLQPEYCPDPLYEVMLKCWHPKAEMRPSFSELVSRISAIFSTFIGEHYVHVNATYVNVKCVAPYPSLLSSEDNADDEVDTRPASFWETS
# Efficacy (%), in vitro cytotoxicity, MKN-45, -HGF per entry
Observed property: Efficacy (%), in vitro cytotoxicity, MKN-45, -HGF

Binder	Measurement units	Measured result
ADC2 (antibody, human IgG1, kappa, V domains shown, vc-seco-DUBA linker-drug on the engineered cysteine at HC position 41 (Kabat); DAR 1.7) VH: QVQLQQSGAELVRPGASVKLSCKASGYVFPDYEMHWVKQTCVHGLEWIGAFDPETGDTTYNQNFKGKATLTADKASSTAYMDLRSLTSGDSAVYYCARDYKYLYYYAMDNWGQGTSVTVSS VL: QIVLTQSPAIMSASLGERVTMTCTASSSITSSYLHWYQQKPGSSPKLWIYSTTNLASGVPGRFSGSGSGTSFSLTISSMEAEDAATYYCHQYRRSPLTFGAGTKLELKR	%	76
ADC3a (antibody, human IgG1, kappa, V domains shown, vc-seco-DUBA linker-drug on the engineered cysteine at HC position 41 (Kabat); DAR 1.9) VH: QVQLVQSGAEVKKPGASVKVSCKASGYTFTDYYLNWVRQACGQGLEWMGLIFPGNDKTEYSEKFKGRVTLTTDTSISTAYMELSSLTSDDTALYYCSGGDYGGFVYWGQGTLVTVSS VL: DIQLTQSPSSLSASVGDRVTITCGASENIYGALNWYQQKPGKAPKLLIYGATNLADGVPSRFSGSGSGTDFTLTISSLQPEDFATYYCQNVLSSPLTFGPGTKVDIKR	%	85
ADC2a (antibody, human IgG1, kappa, V domains shown, vc-seco-DUBA linker-drug on the engineered cysteine at HC position 41 (Kabat); DAR 1.7) VH: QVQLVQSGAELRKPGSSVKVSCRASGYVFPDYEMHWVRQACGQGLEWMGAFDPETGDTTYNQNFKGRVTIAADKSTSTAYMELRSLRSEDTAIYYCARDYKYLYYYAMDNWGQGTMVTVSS VL: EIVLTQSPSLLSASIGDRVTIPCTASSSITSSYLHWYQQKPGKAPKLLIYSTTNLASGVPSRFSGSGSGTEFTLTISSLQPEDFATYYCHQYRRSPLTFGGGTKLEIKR	%	86
ADC3c (antibody, human IgG1, kappa, V domains shown, vc-seco-DUBA linker-drug on the engineered cysteine at HC position 41 (Kabat); DAR 1.8) VH: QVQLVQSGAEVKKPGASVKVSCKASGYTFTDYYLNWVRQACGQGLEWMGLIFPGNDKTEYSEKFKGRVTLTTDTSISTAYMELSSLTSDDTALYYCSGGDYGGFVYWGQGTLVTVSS VL: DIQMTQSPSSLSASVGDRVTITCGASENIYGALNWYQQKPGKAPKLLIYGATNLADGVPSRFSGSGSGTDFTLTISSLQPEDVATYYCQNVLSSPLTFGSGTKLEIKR	%	84
ADC2c (antibody, human IgG1, kappa, V domains shown, vc-seco-DUBA linker-drug on the engineered cysteine at HC position 41 (Kabat); DAR 1.7) VH: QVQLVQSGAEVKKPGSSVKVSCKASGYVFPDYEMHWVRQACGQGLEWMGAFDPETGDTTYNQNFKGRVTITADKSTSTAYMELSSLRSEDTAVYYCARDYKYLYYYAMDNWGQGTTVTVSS VL: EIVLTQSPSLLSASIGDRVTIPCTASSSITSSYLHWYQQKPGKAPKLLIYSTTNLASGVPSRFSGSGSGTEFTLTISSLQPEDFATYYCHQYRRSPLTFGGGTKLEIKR	%	84
ADC3e (antibody, human IgG1, kappa, V domains shown, vc-seco-DUBA linker-drug on the engineered cysteine at HC position 41 (Kabat); DAR 1.9) VH: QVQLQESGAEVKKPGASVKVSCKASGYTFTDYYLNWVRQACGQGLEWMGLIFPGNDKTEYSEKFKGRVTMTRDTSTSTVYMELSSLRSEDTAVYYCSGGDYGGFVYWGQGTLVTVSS VL: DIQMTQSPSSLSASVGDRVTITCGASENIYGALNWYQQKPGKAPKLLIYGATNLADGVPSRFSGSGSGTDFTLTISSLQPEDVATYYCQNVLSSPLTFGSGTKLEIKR	%	81
ADC3b (antibody, human IgG1, kappa, V domains shown, vc-seco-DUBA linker-drug on the engineered cysteine at HC position 41 (Kabat); DAR 1.9, Antibody-drug conjugate of mAb3b; also called mAb3b-vc-seco-DUBA) VH: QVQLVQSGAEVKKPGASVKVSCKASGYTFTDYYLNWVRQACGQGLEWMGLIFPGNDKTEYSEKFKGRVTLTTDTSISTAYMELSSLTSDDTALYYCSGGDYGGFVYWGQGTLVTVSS VL: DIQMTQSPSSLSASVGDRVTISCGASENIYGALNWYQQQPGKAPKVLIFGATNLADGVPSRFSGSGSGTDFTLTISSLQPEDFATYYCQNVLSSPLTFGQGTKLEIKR	%	84
ADC1a (antibody, human IgG1, kappa, V domains shown, vc-seco-DUBA linker-drug on the engineered cysteine at HC position 41 (Kabat); DAR 1.7) VH: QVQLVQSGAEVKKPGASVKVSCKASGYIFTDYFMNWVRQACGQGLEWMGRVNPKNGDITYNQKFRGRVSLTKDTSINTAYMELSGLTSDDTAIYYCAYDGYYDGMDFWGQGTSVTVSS VL: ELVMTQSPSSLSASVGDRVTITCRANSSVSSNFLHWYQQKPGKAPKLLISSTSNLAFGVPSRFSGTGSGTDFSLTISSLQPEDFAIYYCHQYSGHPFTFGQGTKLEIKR	%	84
ADC3 (antibody, human IgG1, kappa, V domains shown, vc-seco-DUBA linker-drug on the engineered cysteine at HC position 41 (Kabat); DAR 1.1) VH: QIQLQQSGPELVKPGASVKISCKASGYTFTDYYLNWVKQRCGQGLEWIGLIFPGNDKTEYSEKFKGKATLTVDTSSSTAYIQLSRLSSEDSAIYFCSGGDYGGFVYWGQGTLVTVSS VL: DIQMTQSPTSLSASVGETVTITCGASENIYGALNWYQRKQGKSPQLLIYGATNLADGMSSRFSGSGSGRQFSLKINSLHPDDVATYFCQNVLSSPLTFGSGTKLEIKR	%	50
ADC1 (antibody, human IgG1, kappa, V domains shown, vc-seco-DUBA linker-drug on the engineered cysteine at HC position 41 (Kabat); DAR 1.5) VH: EVQLQQSGPELLKPGASVKMSCKASGYIFTDYFMNWVKQSCGKSLEWIGRVNPKNGDITYNQKFRGKATLTVDKSLTTAYMQLNSLTSEDSAVYFCAYDGYYDGMDFWGQGTSVTVSS VL: ENVLTQSPAIMSASPGEKVTMTCRANSSVSSNFLHWYQQKSGASPKLWISSTSNLAFGVPPRFSGSGSGTSYSLTISSVEAEDAATYYCHQYSGHPFTFGSGTKLEIKR	%	72
